- Test system: MCF7 breast
- assayMethodText: NCI tumour cell line growth inhibition, 48 h
propertyName: TGI

> print(dat)
                                    compound  endpointresult
 1  O=C(Cc1ccc(/C=C/C(=O)c2ncc[nH]2)cc1)Nc1ccc(Br)cc1       > 16.7 µM
 2  C=C1C(=O)[C@]23[C@H](O)[C@H]1CC[C@H]2[C@@]12CO[C@@]3(O)C[C@@H]1C(C)(C)CC[C@@H]2O         13.1 µM
 3                 N=C(N)n1[nH]c2c(c1=O)CCC2        > 100 µM
 4  CC(C)(C)OC(=O)NC(CCCCNC(=O)OCc1ccccc1)C(=O)NC(CCCCNC(=O)OCc1ccccc1)C(=O)ON1C(=O)CCC1=O (configuration not stated)        > 100 µM
 5      COC(=O)c1[nH]nc(-c2ccccc2)c1N1CCCCC1        > 100 µM
 6  N#CSCC1COc2ccccc2O1 (configuration not stated)         > 10 µM
 7  O=[N+]([O-])c1cccc2nc3ccccc3c(NCCC[N+]3([O-])CCCCC3)c12         1.99 µM
 8  c1ccc(-c2n(Cc3ccc4ccccc4n3)c3ccccc3[n+]2Cc2ccc3ccccc3n2)cc1          1.2 µM
 9  CCOC(=O)N(CC)c1c(C(F)(F)F)cc(-c2ccccc2)[nH]c1=O        > 100 µM
10  Cc1ccc(S(=O)(=O)n2cc(-c3cnc(N)c(Br)n3)c3ccccc32)cc1       > 45.7 µM
11              FC1CCN(C2(c3cccs3)CCCCC2)CC1        > 100 µM
12  Cc1cc2nc3n(c2cc1C)C(c1c(F)cccc1F)SC3 (configuration not stated)         34.2 µM
13  O=C1C[C@H](c2ccccc2)C2(C(=O)c3ccccc3C2=O)[C@@H](c2ccccc2)C1           83 µM
14                  CCC(=N\NC(N)=S)/C(C)=N/O        > 100 µM
15  C/C1=C\CC[C@@](C)(O)[C@H]2C[C@H](CC/C(C)=C/CC1)C1(CC1)C(=O)O2         57.4 µM
16                  [N-]=[N+]=C1CNC(=O)NC1=O        > 100 µM
17  Cc1c(N2C(=O)/C(=C\c3ccc(O)cc3)N=C2c2ccccc2)c(=O)n(-c2ccccc2)n1C        > 100 µM
